# Tested on: MS2 coat protein
# Protocol summary: apparent KD of MS2 coat protein; higher = weaker reporter binding
# Test parameters: Eterna round: R107; input ligand: theophylline 20 uM
Readout type: apparent KD of MS2 coat protein (nM)
Give the quantity in nM, number only.

Sample answers from the record:
Record sequence	System	Test value
GGCACACAUGAGGAUCACCCAUGUGGCGAUACCAGUUGAUGGUAAAACCCUUGGCAGCGCCAGUCACAUGCAGAUAGUUACUGAA [theeternabot_sameState_MS2_Theo_A_32]	MS2 coat protein	19.4
GAUAUGGAAACAUGUCAGAUCCUUACCGGUCGAGGACCGGUACGGCCGCCACUCGCAAAUAUUGUACAUGAGGAUCACCCAUGUA [Ex Tryptophan A 17]	MS2 coat protein	15.4
AGCCCUGUACUAGAUACCAGCUACAUGAGGAUCACCCAUGUGCGUCAAGACUGACUGUGUGGCCCUUGGCAGCUGCUCGCAUGUA [Exclusion - Theophylline B (Freestyle 1)]	MS2 coat protein	191

# input sequence: GGGUGCGGCACGGCCGCCACUGCGGUGGUGUGACAUGAGGAUCACCCAUGUUGUCAUGCGGCCCUUAGGACCGGGUGCCGUGCCC [#1 Exclusion - Tryptophan B Attempt #13 (HarryS)] ; wanted: its apparent KD of MS2 coat protein 60.9

# input sequence: AUGCAUGUCAGAAGGAGCGUCAGUAACAUGAGGAUCACCCAUGUAACAUUGAAUUCGAUGAGACAGGUAGGUCGCUGAAUAGUAA [JR_SSArginiB_Sub019] ; wanted: its apparent KD of MS2 coat protein 37.7

# input sequence: ACGUCCGGAUUGAUCGUGGGCAUGGUCGAUACCAGUAUUUUAAUCUACCCUUGGCAGCGACAUGAGGAUCACCCAUGUGCGAUGA [XTheo A #19] ; wanted: its apparent KD of MS2 coat protein 21.5

# input sequence: CGGCCCUCACCUGAGGAUCACCCAGGUGAUACCAGCCUGGAAACAGGCCCUUGGCAGCACCAGGUCAUCAAAGAUGACCAAGCCG [TheoAX 23 #SwitchBubble] ; wanted: its apparent KD of MS2 coat protein 15.2

# input sequence: ACCGCAUCCGUAUAGGAUGCGGCCCAUGAAGGAGCGUGGGAAACCACAGGUAGGUCGCAUGGACAUGAGGAUCACCCAUGUUAUU [Inception] ; wanted: its apparent KD of MS2 coat protein 79.3

# input sequence: AUUUGGCGUAGUGUUGCUCGUGGGAUAAAACGAGGACCGGUACGGCCGCCACUCGAUGAUUAACAUGAGGAUCACCCAUGUAAAU [theeternabot_exclusion_MS2_Trp_A_22] ; wanted: its apparent KD of MS2 coat protein 30.6

* * *

# Tested on: MS2 coat protein
# Protocol summary: apparent KD of MS2 coat protein; designed switch direction (-1 OFF switch, 1 ON switch): 1; higher = weaker reporter binding
# Test parameters: Eterna round: R95; input ligand: microRNA oligo, concentration not stated
Readout type: apparent KD of MS2 coat protein (nM)
Give the quantity in nM, number only.

Record sequence	System	apparent KD of MS2 coat protein (nM)
CAAGUACAUGAGGAUCACCCAUGUAGAAGAGAUGCAGGAUAUGUGGGAAAAGGGAGUGUAACAGAAGGGCAAGGAG [JR_SS!_Sub018] (puzzle: Same State 1)	MS2 coat protein	55.4
GGAGAGAGAGCGCAGGAUAUUCAAGGAGAAACAUGAGGAUCACCCAUGUGAGAGAGAGAGGAGAGGGAGAAGGGUGAGAGAGAGG [Altered State 2-13 - Jieux - Same State 2] (puzzle: Same State 2)	MS2 coat protein	30.4
AACUAUCUAUCUCAGGAUAUCAUGUCAAAGACAUGAGGAUCACCCAUGUACCAGGAAACUGGUUAUGAGAAGGGAGAUAGAUAGU [Mat - Same State 2 - Mod - D41] (puzzle: Same State 2)	MS2 coat protein	263

Now examine the next entry.
# input sequence: GGCGCGGUCUCGCAGGAUAUCCACAAUCCUACAUGAGGAUCACCCAUGUCGCUGCAGGAUAUUAGGGAGAAGGGUGAUGCCGCGG [Bereri] (puzzle: Same State 2) ; wanted: its apparent KD of MS2 coat protein 30.4

* * *

# Test system: MS2 coat protein
# Protocol summary: apparent KD of MS2 coat protein; designed switch direction (-1 OFF switch, 1 ON switch): 1; higher = weaker reporter binding
# Test parameters: Eterna round: R95; input ligand: FMN 200 uM
Record criterion met whenever apparent KD of MS2 coat protein is at 60 nM or higher; record criterion not met when lower.

Record sequence	System	Label class
UACUAUCUAUCUCAGGAUAUCAUGUCAAAGACAUGAGGAUCACCCAUGUACCAGGAAACUGGUUAUGAGAAGGGAGAUAGAUAGA [Mat - Same State 2 - Mod - D39] (puzzle: Same State 2)	MS2 coat protein	criterion met
GAGAGACAUGAGGAUCACCCAUGUAGGAGAAGACAAGGAUAUGUAGGAGAAGGAGAAGGAACAGAAGGUGUGGGAG [JR_SS1_Sub051] (puzzle: Same State 1)	MS2 coat protein	criterion not met
GUAGAAUAACUAGAGGAUAUCCGAGUGGUAACAUGAGGAUCACCCAUGUGAUGAAAGGAACAUGAGGAGAAGGCUAGAAUGAAUG [Mat - Same State 2 - Mod of JL - D84] (puzzle: Same State 2)	MS2 coat protein	criterion not met
UAGAAACAUGAGGAUCACCCAUGUGUCAAAGACAUAGGAUAUCGUAACCGGCGCCGAAUACGAGAAGGGUGGUAAA [Arares] (puzzle: Same State 1)	MS2 coat protein	criterion met
AUAUAACAUGAGGAUCACCCAUGUCUCUAAAGUCGAGGAUAUGGGCAGGUUAUAUCCGAACCAGAAGGCGAAUUAU [SS1 Teenbexe 5] (puzzle: Same State 1)	MS2 coat protein	criterion not met

Identify whether the reported apparent KD of MS2 coat protein of the following sequence is 60 nM or greater: AGGAUAACACAUGAGGAUCACCCAUGUAUUAUUAUUACAAGCUUUUUGCUCGUUUUUAAUAAUACAUGUGUUAUUUU [Default title] (puzzle: Sensor for hsa-mir-208a version 2) criterion met

Identify whether the reported apparent KD of MS2 coat protein of the following sequence is 60 nM or greater: CCGCGGGUAUCACAGGAUAUACUCAUAAUUACAUGAGGAUCACCCAUGUGACGGAAUUCCGGUGCGUAGAAGGGUGAUGGACCGC [Onquorbe] (puzzle: Same State 2) criterion not met

* * *

# Test system: K4 kissing-loop RNA reporter;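 also: bound reporter read as fluorescence of individual clusters on recovered sequencing chips by microscopy, with normalized cluster intensities fitted with a binding model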
# Protocol summary: apparent KD of K4 kissing-loop reporter; higher = weaker reporter binding
# Test parameters: Eterna round: R107; input ligand: theophylline 20 uM
Readout type: apparent KD of K4 kissing-loop reporter
Answer format reminder: number followed by unit.

Sample answers from the record:
Record sequence	apparent KD of K4 kissing-loop reporter
GGGAGUAGUGCGGCCGCCACUGUGAAAGUAGAAGAAUAUAGUGAUGUUAUAUAGGAUUAAAAGAAUAGGACCGGGCAUUAGAUUU [SSTRyptB.W]	186 nM
UGGAGUUGACGAAGAGUCAACUCCUGAGAUACCAGUGACGAAAGUCACCCUUGGCAGCUCUCUGCCAGUGAUGUUGGUUUAUAAG [#07 K4 Theophylline A Same State]	177 nM

# input sequence: AUGCGCGCGGCGGCCGCCACUCGCAUGAGAGUGAUGUUCUCGCCGGGCCCGAAAGGGCCCGGUGUGAGGACCGGGCCGGGCUGCG [#2 Same State - Tryptophan B Attempt #15 (HarryS)] ; wanted: its apparent KD of K4 kissing-loop reporter 91.8 nM

# input sequence: CGCAGUGAUGUUGCGAGUAGCUACAGGGAAGGAGCGUGCUAGAGCACAGGUAGGUCGCCCAGUGGCAGUGAUGUUGCCAACGGGU [Exclusion ARginine A GF 18] ; wanted: its apparent KD of K4 kissing-loop reporter 104 nM

# input sequence: UUAAUUCCGGUGGUGUGUAGAACACAGUUACGAGGACCGGUACGGCCGCCACUCGGAUGCACUUUCAGUGAUGUUGAAAGCAUCA [Same State Tryptophan A GF 1] ; wanted: its apparent KD of K4 kissing-loop reporter 498 nM

# input sequence: GCGCGGGAGUGAUGUUCCAAGUGGUGUUAACGAGGACCGGUACGGCCGCCACUCGUUACGGCCGGGCCGUAGGAUACACUGGCGC [Same State - Tryptophan A (Freestyle 16)] ; wanted: its apparent KD of K4 kissing-loop reporter 471 nM

# input sequence: "GGUAGCAUGGCGGCCGCCACUCUUCAUUAGUGAUGUUAAUGCCGAGUGCGCUAACUCCAACAGGAGAGGACCGGGCCAUGCUACC" ; wanted: its apparent KD of K4 kissing-loop reporter 760 nM

# input sequence: UAUAUAUGAUGUGAUACCAGUGAAGAGCCAGUGAUGUUGGUAGAACUGGUAUAUAAAUAACACCCUUGGCAGCACAAUCACGUAU [whbob_Ex_Theo_B_sa97] ; wanted: its apparent KD of K4 kissing-loop reporter 212 nM

Data provenance: the supplement of paper PMC9170038
